Values from PubChem BioAssay (NCI)

# System: MDA-MB-468 breast
# procedure details: NCI-60 one-dose screen, 48 h (100 = growth as untreated, 0 = no growth, -100 = all killed)
# applied conditions: 10 µM unless noted
Compounds without any hit were thinned out: in the full panel of roughly 83,000, 20% have a hit.
Record form. Attribute: growth. Fill in for each entry.
// note: answer is a bare numeric in %

Fill in the blank: the reported growth of O=C(c1ccccc1)c1ccc(Oc2ccc([N+](=O)[O-])cc2[N+](=O)[O-])cc1 is ____.
5.3

Also need Cc1ccc2c(=O)cc(C(=O)Nc3sc4c(c3C(=O)NCc3cccnc3)CCCC4)oc2c1C , thanks.
109

Would you mind doing CCC(=C(c1ccc(OCCCN(C)C)cc1)c1ccc(OCCCN(C)C)cc1)c1ccc(Cl)cc1 as well?
-74.4

Moving on to CN(C)c1ncc(-c2ccc(C(F)(F)F)cc2)c(NC2CCCCCC2)n1
29.5

One more molecule: CC(=O)Nc1ccc(S(=O)(=O)Nc2cccc(-c3nc(-c4ccc(NC(=O)c5cccnc5)cc4Cl)no3)c2)cc1
18.4

Now this one: CCN(CC)CCC(CNc1ccnc2cc(Cl)ccc12)c1ccc(O)cc1 (stereo unspecified)
81.1

Also check COC1(OC)C2(Cl)CCC1(Cl)C(Cl)=C2Cl
111

Param item: O=S(=O)(NCCCNc1cc(-c2cn(-c3ccccc3)nc2-c2cccc(O)c2)ccn1)c1ccc(F)cc1
-1.5

Again, but for CCCCCCC(O)(c1ccc(F)cc1)C(CN1CCOCC1)c1ccccc1 (stereo unspecified)
28

Input Cc1ccc(O)c(C(=O)c2ccccc2)c1
103

CC(C)(C)c1cc(O)c(C(C)(C)C)cc1O ?
66.2
